- ASSAYED TARGET: T1, CD7 on cells (K562-CD7 positive cells; KG-1a-GFP-Luc; CCRF-CEM) (UniProt P09564 26-240, limits assumed)
- T1 sequence (looked up): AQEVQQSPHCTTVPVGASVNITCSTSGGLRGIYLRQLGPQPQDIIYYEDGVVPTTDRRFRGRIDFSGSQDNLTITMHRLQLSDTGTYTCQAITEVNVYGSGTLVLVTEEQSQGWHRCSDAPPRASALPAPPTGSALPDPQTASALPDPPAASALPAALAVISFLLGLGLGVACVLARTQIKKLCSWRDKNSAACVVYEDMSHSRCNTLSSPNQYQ
- ASSAY METHOD TEXT: cell-based or functional assay
MEASUREMENT TYPE: killing ratio, CAR-T cells on KG-1a-GFP-Luc, E:T=3:1, 4 h, luciferase (%)
Quick reminder: number only, in %, skip the unit.

Incoming: Read off the recorded killing ratio, CAR-T cells on KG-1a-GFP-Luc, E:T=3:1, 4 h, luciferase for VHH14 single VHH CAR (other) QVQLQESGGGLVQPGGSLRLSCTASGLTLGYYAIGWFRQAPGKEREFVSTISASGGMTYYADSVKGRFTISRDNAKNTVYLEMNSLKPEDTAVYYCAAEYLGNLRHFRGDHWGKGTQVTVSSTTPAPRPPTPAPTIASQPLSLRPEACRPAAGGAVHTRGLDFACDIYIWAPLAGTCGVLLLSLVITLYCKRGRKKLLYIFKQPFMRPVQTTQEEDGCSCRFPEEEEGGCELRVKFSRSADAPAYKQGQNQLYNELNLGRREEYDVLDKRRGRDPEMGGKPRRKNPQEGLYNELQKDKMAEAYSEIGMKGERRRGKGHDGLYQGLSTATKDTYDALHMQALPPR
Outgoing: 60.4
